- measurement.target: T1, MutS R842E (Pseudomonas aeruginosa, UniProt Q9HY08 1-855, R842E)
- T1 sequence: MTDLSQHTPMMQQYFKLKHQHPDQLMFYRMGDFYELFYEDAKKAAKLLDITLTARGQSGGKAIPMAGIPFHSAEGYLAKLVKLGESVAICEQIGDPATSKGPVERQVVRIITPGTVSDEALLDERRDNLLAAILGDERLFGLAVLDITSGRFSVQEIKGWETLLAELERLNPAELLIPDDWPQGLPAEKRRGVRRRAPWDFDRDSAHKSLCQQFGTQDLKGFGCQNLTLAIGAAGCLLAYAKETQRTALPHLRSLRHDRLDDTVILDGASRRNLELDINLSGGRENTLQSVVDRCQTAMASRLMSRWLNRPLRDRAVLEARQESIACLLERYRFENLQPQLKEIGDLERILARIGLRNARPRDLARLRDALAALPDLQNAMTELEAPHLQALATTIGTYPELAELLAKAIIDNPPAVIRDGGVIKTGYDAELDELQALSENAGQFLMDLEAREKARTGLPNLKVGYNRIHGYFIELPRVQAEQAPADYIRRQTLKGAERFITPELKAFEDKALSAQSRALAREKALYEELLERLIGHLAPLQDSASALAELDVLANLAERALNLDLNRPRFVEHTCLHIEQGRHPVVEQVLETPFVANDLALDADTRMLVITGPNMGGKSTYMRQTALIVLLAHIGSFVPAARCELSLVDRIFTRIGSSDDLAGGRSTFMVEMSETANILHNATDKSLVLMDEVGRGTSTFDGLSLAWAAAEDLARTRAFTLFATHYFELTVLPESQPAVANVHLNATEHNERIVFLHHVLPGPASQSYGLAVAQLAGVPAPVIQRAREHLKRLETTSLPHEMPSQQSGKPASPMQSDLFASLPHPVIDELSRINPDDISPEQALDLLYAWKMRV
- measurement.protocol: native PAGE shift
measurement.type: binding result

- binder: "GA-pDNA (dsDNA) DNA 1: ATGTGAATCAGTATGGTTGCTATCTGC DNA 2: ATTTCCTTCAGCAGATAGAAACCATACTGATTCACAT"
  reading: "binds"
- binder: "CT-pDNA (dsDNA) DNA 1: ATGTGAATCAGTATGGTTCCTATCTGC DNA 2: ATTTCCTTCAGCAGATAGTAACCATACTGATTCACAT"
  reading: "binds"
- binder: "TG-pDNA (dsDNA) DNA 1: ATGTGAATCAGTATGGTTTCTATCTGC DNA 2: ATTTCCTTCAGCAGATAGGAACCATACTGATTCACAT"
  reading: "binds"
